Source listed as patent US8853246B2.

Give measured pest or weed control at 200 ppm for each item. Keep answers brief.
# Test system: Sweetpotato Whitefly-Crawler (Bemisia Tabaci)
# ASSAY OVERVIEW: Insecticidal test for sweetpotato whitefly-crawler in foliar spray assay (col. BEMITA)
# Type: in vivo
# CONDITION SET: Bemisia tabaci, sweetpotato whitefly-crawler, read-out: BEMITA 200 ppm (Corrected % Control, rating)

// lookup pest or weed control at 200 ppm for CSCC(C)(C)C(=O)Nc1sc(-c2cccnc2)nc1C(F)(F)F [Compound 135] < 80%

What about this compound? Cc1nc(-c2cccnc2)sc1NC(=O)c1cnn(C)c1 [Compound 355] < 80%

What about this compound? CN(C(=O)CC[S+](C)[O-])c1cnc(-c2cncc(F)c2)s1 (centres unmarked) [Compound 78] < 80%

What about this compound? CSCCCC(=O)N(C)c1sc(-c2cccnc2)nc1C [Compound 368] 80 to 100%

What about this compound? CSCC(=O)N(C)c1sc(-c2cccnc2)nc1Cl [Compound 369] 80 to 100%

What about this compound? COc1ccc(CN(C(=O)OC(C)(C)C)c2cnc(-c3cccnc3)s2)cc1 [Compound 244] < 80%

What about this compound? CCN(C(=O)C(C)C)c1sc(-c2cncc(F)c2)nc1Cl [Compound 275] 80 to 100%

What about this compound? COCN(C(=O)C(C)CSC)c1sc(-c2cccnc2)nc1C (centres unmarked) [Compound 196] 80 to 100%

What about this compound? C=CC(=O)N(C(=O)OC(C)(C)C)c1sc(-c2cccnc2)nc1C [Compound 205] 80 to 100%

What about this compound? CCc1nc(-c2cccnc2)sc1N(C)C(=O)CCSC [Compound 47] 80 to 100%

What about this compound? CSCC(C)(C)C(=O)N(C)c1sc(-c2cncnc2)nc1C [Compound 53] 80 to 100%

What about this compound? CCN(C(=O)OC(C)(C)C)c1sc(-c2cncc(F)c2)nc1Cl [Compound 267] 80 to 100%

What about this compound? CSCCOC(=O)N(C)c1cnc(-c2cncc(F)c2)s1 [Compound 75] < 80%

What about this compound? CN(C(=O)CC[S+](C)[O-])c1sc(-c2cccnc2)nc1Cl (centres unmarked) [Compound 174] 80 to 100%

What about this compound? Cc1nc(-c2cncc(F)c2)sc1N(C)C(=O)OC(C)(C)C [Compound 165] 80 to 100%

What about this compound? Cc1cc(C(=O)Nc2sc(-c3cccnc3)nc2C)ccn1 [Compound 406] < 80%

What about this compound? CCN(C(=O)C(C)(C)C[S+](C)[O-])c1sc(-c2cncc(F)c2)nc1C (centres unmarked) [Compound 260] 80 to 100%

What about this compound? Cc1nc(-c2cccnc2)sc1NC(=O)c1ccoc1 [Compound 399] 80 to 100%

What about this compound? CC(=O)N(C)c1sc(-c2cccnc2)nc1C [Compound 193] 80 to 100%

What about this compound? CCN(C(=O)C(C)CS(C)(=O)=O)c1sc(-c2cccnc2)nc1Cl (centres unmarked) [Compound 349] 80 to 100%

What about this compound? CCCNC(=O)N(C)c1sc(-c2cccnc2)nc1C [Compound 391] 80 to 100%

What about this compound? CCN(C(=O)C(C)C[S+](C)[O-])c1sc(-c2cccnc2)nc1C (centres unmarked) [Compound 234] 80 to 100%

What about this compound? Cc1nc(-c2cccnc2)sc1N(C)C(=O)C(C)NC(=O)OC(C)(C)C (centres unmarked) [Compound 282] 80 to 100%

What about this compound? CC(C)(C)OC(=O)Nc1sc(-c2cncc(F)c2)nc1F [Compound 353] 80 to 100%

What about this compound? CN(C(=O)C(F)(F)F)c1sc(-c2cccnc2)nc1-c1ccccc1 [Compound 4] < 80%

What about this compound? CSCC(C)C(=O)N(C)c1sc(-c2cncc(F)c2)nc1C (centres unmarked) [Compound 40] 80 to 100%

What about this compound? Cc1nc(-c2cncc(F)c2)sc1N(C)C(=O)C1CCSC1 (centres unmarked) [Compound 214] 80 to 100%

What about this compound? CCN(C(=O)CCS(C)(=O)=O)c1sc(-c2cccnc2)nc1Cl [Compound 315] 80 to 100%

What about this compound? COC(=O)CCC(=O)N(C)c1cnc(-c2cccnc2)s1 [Compound 27] < 80%

What about this compound? CN(C(=O)OC(C)(C)C)c1cnc(-c2ccc(Cl)nc2)s1 [Compound 16] 80 to 100%

What about this compound? CSCC(C)C(=O)N(C(=O)OC(C)(C)C)c1sc(-c2cncc(C#N)c2)nc1C (centres unmarked) [Compound 158] < 80%

What about this compound? CSCC(C)C(=O)Nc1sc(-c2ccc(Cl)nc2)nc1C (centres unmarked) [Compound 169] 80 to 100%

What about this compound? CCN(C(=O)C(C)C)c1sc(-c2cccnc2)nc1C [Compound 233] 80 to 100%

What about this compound? CC(C)(C)OC(=O)N(C(=O)OC(C)(C)C)c1sc(-c2cncc(F)c2)nc1Cl [Compound 352] < 80%

What about this compound? CCC(C)NC(=O)N(C)c1cnc(-c2cncc(F)c2)s1 (centres unmarked) [Compound 73] 80 to 100%

What about this compound? CCOC(=O)c1nc(-c2cccnc2)sc1NC(=O)C(C)CSC (centres unmarked) [Compound 395] < 80%

What about this compound? CCN(C(=O)CCSC)c1sc(-c2cncc(F)c2)nc1F [Compound 425] 80 to 100%

What about this compound? CSCC(C)(C)C(=O)Nc1sc(-c2cccnc2)nc1C [Compound 57] 80 to 100%
